- targetOfAssay: T1, mouse EphB4 ectodomain Fc fusion protein (mouse EphB4-Fc-His, R&D Systems) (mouse, UniProt P54761 16-539)
- T1 construct: extracellular domain; also called murine EphB4; not shown: Fc part of a bought fusion protein; His tag of the bought protein
- T1 sequence (looked up): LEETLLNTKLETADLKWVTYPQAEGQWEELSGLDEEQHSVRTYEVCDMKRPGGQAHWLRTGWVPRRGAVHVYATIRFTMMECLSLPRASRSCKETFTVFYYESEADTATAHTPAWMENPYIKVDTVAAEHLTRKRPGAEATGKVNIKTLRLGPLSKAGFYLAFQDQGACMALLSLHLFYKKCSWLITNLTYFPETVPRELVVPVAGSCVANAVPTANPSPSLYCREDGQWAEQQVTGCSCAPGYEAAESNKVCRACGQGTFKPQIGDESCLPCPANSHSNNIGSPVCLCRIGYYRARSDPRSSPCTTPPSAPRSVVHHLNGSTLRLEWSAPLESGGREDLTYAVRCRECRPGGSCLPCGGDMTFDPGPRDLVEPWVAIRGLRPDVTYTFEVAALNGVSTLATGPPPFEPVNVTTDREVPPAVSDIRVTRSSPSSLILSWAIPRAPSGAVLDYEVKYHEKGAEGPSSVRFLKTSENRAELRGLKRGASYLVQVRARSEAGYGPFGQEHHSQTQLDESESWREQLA
- assayProcedure: competition ELISA: inhibition of mouse ephrin-B2 AP binding to immobilized mouse EphB4 ectodomain Fc; text sentence that cites Table 1A; same ELISA
pIC50: −log10 of the molar value.
recordedEndpoint: pIC50

Ask | // Input: TNYLFSPNGPIARAW (Synthetic 15-mer (Biopeptide, Inc.); Peptide positions are printed as P1 to P15; also called antagonistic peptide) [TNYL-RAW peptide (TNYLFSPNGPIARAW)] . Output its pIC50 only.
Reply | ~7.82
